# Test system: Enterococcus sp.
# Experiment: in vitro antibacterial evaluation, MIC by broth dilution
# Assay type: cell-based
# Assay Context: strain GC 4553; broth dilution, 18 hours at 35° C.
Numbered stars: 1 amine (or outer) side, 2 acyl side, 3 side chain; on linkers, the order of the positions; unused ones are H or OH. Square brackets hold non-standard residues; d marks the D form. Peptide text beside a SMILES is read from it. * marks the point of attachment. ξ: configuration not given here. X1 = N=C1NCC(C(O)C(N[*:1])C(=O)[*:2])N1C1OC(CO)C(O)C(O)C1O; ξEnduracididine(βξ-OH,4'ξ) = N=C1NCC(C(O)C(N)C(=O)O)N1; X2 = OCC1OC(OC2C(CO)OC(*)C(O)C2O)C(O)C(O)C1O; ξCha(3ξ-Me) = CC(C1CCCCC1)C(N)C(=O)O
Assign labels as follows, please: 1.0 for MIC Enterococcus faecalis (GC 4553) below 20 µg/mL; 0.0 for MIC Enterococcus faecalis (GC 4553) equal to or exceeding 20 µg/mL.

molecule="CSc1ccc(C2OCC3OC(OC4C(CO)OC(Oc5ccc(CC6NC(=O)C(C(C)c7ccccc7)NC(=O)CNC(=O)C(CO)NC(=O)C(C(O)C7CNC(=N)N7C7OC(CO)C(O)C(O)C7O)NC(=O)C(C(O)C7CNC(=N)N7)NC6=O)cc5)C(O)C4O)C(O)C(O)C3O2)cc1 (stereo not shown) [Example 144]" assayed_system="Enterococcus sp." assigned_category=1.0
molecule="CC(c1ccccc1)C1NC(=O)CNC(=O)C(CO)NC(=O)C(C(O)C2CNC(=N)N2C2OC(CO)C(O)C(O)C2O)NC(=O)C(C(O)C2CNC(=N)N2)NC(=O)C(Cc2ccc(OC3OC(CO)C(OC4OC(CO)C(O)C5OC(c6ccc(-c7ccsc7)cc6)OC45)C(O)C3O)cc2)NC1=O (stereo not shown) [Example 164a]" assayed_system="Enterococcus sp." assigned_category=1.0
molecule="CC(c1ccccc1)C1NC(=O)CNC(=O)C(CO)NC(=O)C(C(O)C2CNC(=N)N2C2OC(CO)C(O)C(O)C2O)NC(=O)C(C(O)C2CNC(=N)N2)NC(=O)C(Cc2ccc(OC3OC(CO)C(OC4OC5COC(c6cccc(Cl)c6)OC5C(O)C4O)C(O)C3O)cc2)NC1=O (stereo not shown) [Example 138]" assayed_system="Enterococcus sp." assigned_category=1.0
molecule="CCCc1ccc(C2OCC3OC(OC4C(CO)OC(Oc5ccc(CC6NC(=O)C(C(C)c7ccccc7)NC(=O)CNC(=O)C(CO)NC(=O)C(C(O)C7CNC(=N)N7C7OC(CO)C(O)C(O)C7O)NC(=O)C(C(O)C7CNC(=N)N7)NC6=O)cc5)C(O)C4O)C(O)C(O)C3O2)cc1 (stereo not shown) [Example 140]" assayed_system="Enterococcus sp." assigned_category=1.0
molecule="CCOc1cc(C2OCC3OC(OC4C(CO)OC(Oc5ccc(CC6NC(=O)C(C(C)c7ccccc7)NC(=O)CNC(=O)C(CO)NC(=O)C(C(O)C7CNC(=N)N7C7OC(CO)C(O)C(O)C7O)NC(=O)C(C(O)C7CNC(=N)N7)NC6=O)cc5)C(O)C4O)C(O)C(O)C3O2)ccc1OC (stereo not shown) [Example 152]" assayed_system="Enterococcus sp." assigned_category=0.0
molecule="CC(c1ccccc1)C1NC(=O)CNC(=O)C(CO)NC(=O)C(C(O)C2CNC(=N)N2C2OC(CO)C(O)C(O)C2O)NC(=O)C(C(O)C2CNC(=N)N2)NC(=O)C(Cc2ccc3oc(SCC(=O)c4ccc(Cl)cc4)nc3c2)NC1=O (stereo not shown) [Example 49]" assayed_system="Enterococcus sp." assigned_category=1.0
molecule="COc1cc(C2OCC3OC(OC4C(CO)OC(Oc5ccc(CC6NC(=O)C(C(C)c7ccccc7)NC(=O)CNC(=O)C(CO)NC(=O)C(C(O)C7CNC(=N)N7C7OC(CO)C(O)C(O)C7O)NC(=O)C(C(O)C7CNC(=N)N7)NC6=O)cc5)C(O)C4O)C(O)C(O)C3O2)cc([N+](=O)[O-])c1O (stereo not shown) [Example 169]" assayed_system="Enterococcus sp." assigned_category=0.0
molecule="CC(c1ccccc1)C1NC(=O)CNC(=O)C(CO)NC(=O)C(C(O)C2CNC(=N)N2C2OC(CO)C(O)C(O)C2O)NC(=O)C(C(O)C2CNC(=N)N2)NC(=O)C(Cc2ccc3oc(-c4ccoc4)nc3c2)NC1=O (stereo not shown) [Example 38]" assayed_system="Enterococcus sp." assigned_category=0.0
molecule="CCOc1cc(C2OCC3OC(OC4C(CO)OC(Oc5ccc(CC6NC(=O)C(C(C)c7ccccc7)NC(=O)CNC(=O)C(CO)NC(=O)C(C(O)C7CNC(=N)N7C7OC(CO)C(O)C(O)C7O)NC(=O)C(C(O)C7CNC(=N)N7)NC6=O)cc5)C(O)C4O)C(O)C(O)C3O2)ccc1[N+](=O)[O-] (stereo not shown) [Example 167]" assayed_system="Enterococcus sp." assigned_category=0.0
molecule="COc1cccc(C2OC3C(OC4C(CO)OC(Oc5ccc(CC6NC(=O)C(C(C)c7ccccc7)NC(=O)CNC(=O)C(CO)NC(=O)C(C(O)C7CNC(=N)N7C7OC(CO)C(O)C(O)C7O)NC(=O)C(C(O)C7CNC(=N)N7)NC6=O)cc5)C(O)C4O)OC(CO)C(O)C3O2)c1 (single isomer, unassigned) [Example 137b]" assayed_system="Enterococcus sp." assigned_category=0.0
molecule="COc1cccc(C2OC3C(OC4C(CO)OC(Oc5ccc(CC6NC(=O)C(C(C)c7ccccc7)NC(=O)CNC(=O)C(CO)NC(=O)C(C(O)C7CNC(=N)N7C7OC(CO)C(O)C(O)C7O)NC(=O)C(C(O)C7CNC(=N)N7)NC6=O)cc5)C(O)C4O)OC(CO)C(O)C3O2)c1 (single isomer, unassigned) [Example 137a]" assayed_system="Enterococcus sp." assigned_category=0.0
molecule="CC(c1ccccc1)C1NC(=O)CNC(=O)C(CO)NC(=O)C(C(O)C2CNC(=N)N2C2OC(CO)C(O)C(O)C2O)NC(=O)C(C(O)C2CNC(=N)N2)NC(=O)C(Cc2ccc3oc(-c4ccc(C(=O)O)cc4)nc3c2)NC1=O (stereo not shown) [Example 25]" assayed_system="Enterococcus sp." assigned_category=0.0
molecule="CC(C1CCCCC1)C1NC(=O)CNC(=O)C(CO)NC(=O)C(C(O)C2CNC(=N)N2C2OC(CO)C(O)C(O)C2O)NC(=O)C(C(O)C2CNC(=N)N2)NC(=O)C(Cc2ccc(OC3OC(CO)C(OC4OC(CO)C(O)C(O)C4O)C(O)C3O)cc2)NC1=O (stereo not drawn) [Example 51] (cyclo(G[ξCha(3ξ-Me)]Y(X2)[ξEnduracididine(βξ-OH,4'ξ)][X1]S); configuration not given here)" assayed_system="Enterococcus sp." assigned_category=0.0
